B1: KCNG1 (parent)
chain: AVNLSVSTLPSLREEEEQVRAHAP

Variants of: B1
Experiment: protein stability index of a GFP-peptide fusion (GPS, HEK-293T) (PSI 1-6); higher = more stable;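 note: lentivirally expressed fusions sorted by FACS into six bins by GFP to DsRed ratio, PSI derived from sequencing read proportions per bin multiplied by bin number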
Conditions: c terminus: a fixed tail appended
Returns yes if the recorded protein stability index is greater than or equal to 5, and no otherwise.

- mutant_code: "V19R"
  cat: "no"
- mutant_code: "L4Q"
  cat: "yes"
- mutant_code: "L9D"
  cat: "yes"
- mutant_code: "H22N"
  cat: "yes"
- mutant_code: "R20G"
  cat: "yes"
- mutant_code: "E15T"
  cat: "no"
- mutant_code: "S11V"
  cat: "no"
- mutant_code: "N3W"
  cat: "no"
- mutant_code: "Q18D"
  cat: "yes"
- mutant_code: "E15Q"
  cat: "no"
- mutant_code: "E14Y"
  cat: "no"
- mutant_code: "E14R"
  cat: "no"
- mutant_code: "S11C"
  cat: "no"
- mutant_code: "R13Y"
  cat: "no"
- mutant_code: "R13N"
  cat: "yes"
- mutant_code: "S11F"
  cat: "no"
- mutant_code: "P24H"
  cat: "yes"
- mutant_code: "E16S"
  cat: "no"
- mutant_code: "V6G"
  cat: "no"
- mutant_code: "R20Y"
  cat: "no"
- mutant_code: "Q18F"
  cat: "no"
- mutant_code: "V19M"
  cat: "no"
- mutant_code: "H22M"
  cat: "yes"
- mutant_code: "S5N"
  cat: "no"
- mutant_code: "A23G"
  cat: "yes"
- mutant_code: "E17N"
  cat: "no"
- mutant_code: "N3L"
  cat: "no"
- mutant_code: "L12K"
  cat: "no"
- mutant_code: "R20E"
  cat: "yes"
- mutant_code: "T8A"
  cat: "yes"
- mutant_code: "L12I"
  cat: "no"
- mutant_code: "P10T"
  cat: "no"
- mutant_code: "P10H"
  cat: "no"
- mutant_code: "P10M"
  cat: "no"
- mutant_code: "A1T"
  cat: "yes"
- mutant_code: "H22P"
  cat: "no"
- mutant_code: "S5F"
  cat: "no"
- mutant_code: "P24M"
  cat: "no"
- mutant_code: "P10Y"
  cat: "no"
- mutant_code: "E14V"
  cat: "no"
- mutant_code: "A21D"
  cat: "yes"
- mutant_code: "T8D"
  cat: "yes"
- mutant_code: "A1V"
  cat: "no"
- mutant_code: "L9G"
  cat: "no"
- mutant_code: "A23P"
  cat: "yes"
- mutant_code: "E16D"
  cat: "yes"
- mutant_code: "L4G"
  cat: "yes"
- mutant_code: "E14T"
  cat: "no"
- mutant_code: "N3F"
  cat: "no"
- mutant_code: "A21C"
  cat: "no"
- mutant_code: "Q18Y"
  cat: "no"
- mutant_code: "V19P"
  cat: "yes"
- mutant_code: "T8Y"
  cat: "no"
- mutant_code: "P24I"
  cat: "no"
- mutant_code: "Q18K"
  cat: "no"
- mutant_code: "L12R"
  cat: "yes"
- mutant_code: "P10S"
  cat: "no"
- mutant_code: "E16K"
  cat: "no"
- mutant_code: "V19C"
  cat: "no"
- mutant_code: "S5Q"
  cat: "no"
- mutant_code: "E16Q"
  cat: "no"
- mutant_code: "R13L"
  cat: "no"
- mutant_code: "R20W"
  cat: "no"
- mutant_code: "E16C"
  cat: "no"
- mutant_code: "E15I"
  cat: "no"
- mutant_code: "T8W"
  cat: "no"
- mutant_code: "S5E"
  cat: "yes"
- mutant_code: "E17M"
  cat: "no"

The reported measurements were obtained from the supplement of paper PMC10567573.
